Answer each item with its documented log10 of IC50.
biological target: Delta-type opioid receptor (Rattus norvegicus); assay: Inhibition of [3H][p-Cl-Phe-][…] binding to rat brain homogenate delta-opioid receptor
Sequence (P33533 whole entry): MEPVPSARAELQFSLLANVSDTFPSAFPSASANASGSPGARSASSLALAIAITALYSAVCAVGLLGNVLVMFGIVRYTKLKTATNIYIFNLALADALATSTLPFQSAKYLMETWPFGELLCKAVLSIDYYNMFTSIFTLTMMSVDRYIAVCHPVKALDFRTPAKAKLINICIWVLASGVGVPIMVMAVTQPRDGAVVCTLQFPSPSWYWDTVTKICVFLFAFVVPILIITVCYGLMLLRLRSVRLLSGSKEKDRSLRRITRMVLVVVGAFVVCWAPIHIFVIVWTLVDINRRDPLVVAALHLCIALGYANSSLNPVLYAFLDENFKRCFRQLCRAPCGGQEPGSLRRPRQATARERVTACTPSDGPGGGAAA
Recall that a logarithmic scale is used here: each number is log10 of IC50 in nM.

Compound	Target of assay	log10 of IC50
CC(C)[C@H](NC(=O)[C@H]1NC(=O)[C@H](CC(=O)O)NC(=O)[C@H](Cc2ccccc2)NC(=O)[C@H](NC(=O)[C@@H](N)Cc2ccc(O)cc2)CSSC1(C)C)C(=O)NCC(N)=O	Delta-type opioid receptor (Rattus norvegicus)	0.34
CC(C)[C@H](NC(=O)[C@H]1NC(=O)[C@H](CC(=O)O)NC(=O)[C@H](Cc2ccccc2)NC(=O)[C@H](NC(=O)[C@@H](N)Cc2ccc(O)cc2)C(C)(C)SSC1(C)C)C(=O)NCC(N)=O	Delta-type opioid receptor (Rattus norvegicus)	0.57
CC(C)C(NC(=O)[C@H]1NC(=O)[C@H](CO)NC(=O)C(Cc2ccccc2)NC(=O)[C@H](NC(=O)[C@@H](N)Cc2ccc(O)cc2)C(C)(C)SSC1(C)C)C(=O)NCC(N)=O (single isomer, unassigned)	Delta-type opioid receptor (Rattus norvegicus)	1.00

Hi, could you look up log10 of IC50 for each item in my list?
1. CC(C)[C@H](NC(=O)[C@@H]1NC(=O)[C@H](CC(=O)O)NC(=O)[C@H](Cc2ccccc2)NC(=O)[C@H](NC(=O)[C@@H](N)Cc2ccc(O)cc2)C(C)(C)SSC1(C)C)C(=O)NCC(N)=O
2. CSCCC(NC(=O)[C@H](CC(C)C)NC(=O)[C@H](Cc1c[nH]cn1)NC(=O)[C@H](Cc1ccccc1)NC(=O)C(CCSC)NC(=O)[C@@H](N)Cc1ccc(O)cc1)C(=O)N[C@@H](CC(=O)O)C(N)=O (stereo in doubt)
3. CCCC[C@H](NC(=O)[C@H]1NC(=O)[C@H](CC(=O)O)NC(=O)C(Cc2ccccc2)NC(=O)[C@H](NC(=O)[C@@H](N)Cc2ccc(O)cc2)C(C)(C)SSC1(C)C)C(=O)NCC(N)=O (single isomer, unassigned)
4. CCCC[C@H](NC(=O)[C@H]1NC(=O)[C@H](Cc2c[nH]cn2)NC(=O)C(Cc2ccccc2)NC(=O)[C@H](NC(=O)[C@@H](N)Cc2ccc(O)cc2)C(C)(C)SSC1(C)C)C(=O)N[C@@H](CC(=O)O)C(N)=O (single isomer, unassigned)
5. CC(C)C(NC(=O)[C@H]1NC(=O)[C@H](CCC(=O)O)NC(=O)C(Cc2ccccc2)NC(=O)[C@H](NC(=O)[C@@H](N)Cc2ccc(O)cc2)C(C)(C)SSC1(C)C)C(=O)NCC(N)=O (single isomer, unassigned)
6. CCCC[C@H](NC(=O)[C@H]1NC(=O)[C@H](Cc2c[nH]cn2)NC(=O)C(Cc2ccccc2)NC(=O)[C@H](NC(=O)[C@@H](N)Cc2ccc(O)cc2)C(C)(C)SSC1(C)C)C(=O)N[C@@H](CC(=O)O)C(=O)O (single isomer, unassigned)

[2.32, -0.33, 0.68, 0.53, 0.76, 0.71]
